Data credit: the RNAGym collection of RNA variant scans (doi:10.1126/science.aae0568)

Known yeast fitness of a selection of variants
B1: tRNA (parent)
chain: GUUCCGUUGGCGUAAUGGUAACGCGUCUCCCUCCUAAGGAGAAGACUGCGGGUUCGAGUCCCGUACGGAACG

variants of: B1; test: yeast fitness relative to wild type (ratio to wild type); higher = fitter; tRNA-Arg(CCU), competitive growth, 37 C, YPD
This sample holds only a part of the variants without activity.
Lab note: record just the number, no unit beside it.

A21G C49U G63A :: 0.804
U3A U7G :: 0.734
A45U C62G :: 0.837
U32C G41C U47C :: 0.592
C27U C46U G48A A69C :: 0.696

Q: Form field: reported yeast fitness of U2G C62G
Ans: 0.632

Q: Again, but for G18A C49U
Ans: 0.892

Q: // query: C5U A65C G68A
Ans: 0.681

Q: Also A36G A40C A42G C61U ?
Ans: 0.566

Q: # iterate: U47G C62U A65U
Ans: 0.64

Q: A21C C22U C31U C33U C62A , same question.
Ans: 0.61

Q: Same for C4U A20C U26G
Ans: 0.552

Q: And for U13C C31G ?
Ans: 0.933

Q: Next variant up: G6A G41A C60G A65G
Ans: 0.618

Q: Request: A20C C24G A42G
Ans: 0.585

Q: # repeat for C29G C30U A36C G39A C46G
Ans: 0.52

Q: And A45U C62U ?
Ans: 1.07

Q: And what about the variant U3C C4U A21G C46A ?
Ans: 0.628

Q: Likewise for A15G C29U A43C A69U ?
Ans: 0.536

Q: Follow-up item: U19C C27U C55G
Ans: 0.544

Q: Another variant to look at: C55U G63A A69C
Ans: 0.537

Q: Please do the same for U3G C24U C31U as well.
Ans: 0.793

Q: Next record, please: C4U U32G A40C
Ans: 0.57
